- assay details: Bone powder binding, fluorometric detection
- protocol conditions: 1 mg/ml compound, bone meal powder 10 mg/ml in PBS, 37° C., 1 h
reported property: Binding to bone (%) Fluorescence

| compound | Binding to bone (%) Fluorescence |
| --- | --- |
| COc1c(N2CCNC(C)C2)c(F)cc2c(=O)c(C(=O)O)cn(C3CC3)c12 (stereo not shown) [Compound 15, Gatifloxacin, reference compound] | 0 |
| COc1c(N2C[C@@H]3CCCN[C@@H]3C2)c(F)cc2c(=O)c(C(=O)OCCCC(P(=O)(O)O)P(=O)(O)O)cn(C3CC3)c12 | 93.8 |
| COc1c(N2C[C@@H]3CCCN(C(=O)OCC(=O)Nc4ccc(CC(P(=O)(O)O)P(=O)(O)O)cc4)[C@@H]3C2)c(F)cc2c(=O)c(C(=O)O)cn(C3CC3)c12 | 99.4 |
| COc1c(N2CCNC(C)C2)c(F)cc2c(=O)c(C(=O)SCCCC(P(=O)(O)O)P(=O)(O)O)cn(C3CC3)c12 (stereo not shown) | 98.7 |

====

- assay details: Bone powder binding, LC/MS detection
- protocol conditions: 100 μM compound, Tris-HCl pH 7, 0.15M NaCl, ground rat tibia bone, 10 min
reported property: Binding to bone (%) LC/MS

| compound | Binding to bone (%) LC/MS |
| --- | --- |
| COc1c(N2C[C@@H]3CCCN[C@@H]3C2)c(F)cc2c(=O)c(C(=O)OCC(=O)NC(P(=O)(O)O)P(=O)(O)O)cn(C3CC3)c12 | 94.2 |
| COc1c(N2CCNC(C)C2)c(F)cc2c(=O)c(C(=O)OCCCC(P(=O)(O)O)P(=O)(O)O)cn(C3CC3)c12 (stereo not shown) | 96.0 |
| COc1c(N2CCNC(C)C2)c(F)cc2c(=O)c(C(=O)OCCCCC(P(=O)(O)O)P(=O)(O)O)cn(C3CC3)c12 (stereo not shown) | 91.9 |
| COc1c(N2C[C@@H]3CCCN[C@@H]3C2)c(F)cc2c(=O)c(C(=O)OCCCCC(P(=O)(O)O)P(=O)(O)O)cn(C3CC3)c12 | 87.6 |

====

- assay details: Bone powder binding, fluorometric detection
- protocol conditions: 1 mg/ml compound, bone meal powder 10 mg/ml in PBS, 37° C., 1 h
reported property: Binding to bone (%) Fluorescence

| compound | measure unit | Binding to bone (%) Fluorescence |
| --- | --- | --- |
| COc1c(N2CCN(C(=O)OC(C)OC(=O)CCCC(P(=O)(O)O)P(=O)(O)O)C(C)C2)c(F)cc2c(=O)c(C(=O)O)cn(C3CC3)c12 (stereo not drawn) | % | 88.4 |
| COc1c(N2C[C@@H]3CCCN[C@@H]3C2)c(F)cc2c(=O)c(C(=O)OCC(=O)Nc3ccc(CC(P(=O)(O)O)P(=O)(O)O)cc3)cn(C3CC3)c12 | % | 97.2 |
| COc1c(N2C[C@@H]3CCCN[C@@H]3C2)c(F)cc2c(=O)c(C(=O)OCCCCC(P(=O)(O)O)P(=O)(O)O)cn(C3CC3)c12 | % | 92.7 |
| COc1c(N2C[C@@H]3CCCN(C(=O)CC(P(=O)(O)O)P(=O)(O)O)[C@@H]3C2)c(F)cc2c(=O)c(C(=O)O)cn(C3CC3)c12 | % | 98.2 |
| COc1c(N2CCN(C(=O)CC(P(=O)(O)O)P(=O)(O)O)C(C)C2)c(F)cc2c(=O)c(C(=O)O)cn(C3CC3)c12 (stereo not drawn) | % | 82.5 |
| COc1c(N2C[C@@H]3CCCN(CC(P(=O)(O)O)P(=O)(O)O)[C@@H]3C2)c(F)cc2c(=O)c(C(=O)O)cn(C3CC3)c12 | % | 92.2 |
| COc1c(N2CCN(CCC(=O)c3ccc(OCCCC(P(=O)(O)O)P(=O)(O)O)cc3)C(C)C2)c(F)cc2c(=O)c(C(=O)O)cn(C3CC3)c12 (stereo not drawn) | % | 94.7 |
| COc1c(N2C[C@@H]3CCCN[C@@H]3C2)c(F)cc2c(=O)c(C(=O)SCCCC(P(=O)(O)O)P(=O)(O)O)cn(C3CC3)c12 | % | 99.9 |
| CCCC(=O)Oc1ccc(P(=O)(O)CP(=O)(O)O)cc1C(C)(C)CC(=O)N1CCN(c2c(F)cc3c(=O)c(C(=O)O)cn(C4CC4)c3c2OC)CC1C (stereo not drawn) | % | 89.6 |
| COc1c(N2CCNC(C)C2)c(F)cc2c(=O)c(C(=O)OCC(=O)N(C)C(P(=O)(O)O)P(=O)(O)O)cn(C3CC3)c12 (stereo not drawn) | % | 90.4 |
| O=C(O)c1cn(C2CC2)c2cc(N3CCN(CC(P(=O)(O)O)P(=O)(O)O)CC3)c(F)cc2c1=O | % | 99.6 |
| COc1c(N2CCN(C(=O)CC(C)(C)c3cc(P(=O)(O)CP(=O)(O)O)ccc3OC(=O)C(C)C)C(C)C2)c(F)cc2c(=O)c(C(=O)O)cn(C3CC3)c12 (stereo not drawn) | % | 76.0 |
